system: Respiratory Syncytial Virus (RSV) long strain; assay: microbe, parasite or virus in culture; type: cell-based; conditions: read-out: 50% effective concentration (EC50); HEp-2 cells infected with RSV long strain, 5 days, CCK-8 readout; Tables A and B list compounds by EC50 band
pEC50: −log10 of the molar value.

- COMPOUND: "COc1cc(C(=O)NCC(O)(Cn2cccn2)c2ccc(OC)c(-c3ccc(F)c(Cl)c3)n2)ccc1OCCO (stereo not shown)"
  pEC50: "> 6.00"

====

assay: Cytotoxicity Determination (CCK-8, without addition of virus); type: cell-based; conditions: human, 50% cytotoxicity concentration (CC50)
ASSAY ENDPOINT: CC50 at 5 days

- COMPOUND: "COc1cc(C(=O)NCC(O)(c2ccc(OCCN)c(-c3ccc(F)cc3)n2)C(F)(F)F)ccc1OC1CC1 (stereo not shown)"
  ASSAY ENDPOINT: "CC50 at 5 days"
  OBSERVED RESULT: "10 to 100 µM"
- COMPOUND: "COc1cc(C(=O)NCC(F)(c2ccc(OC)c(-c3ccc(F)c(Cl)c3)n2)C2CC2)ccc1OCCO (stereo not shown)"
  ASSAY ENDPOINT: "CC50 at 5 days"
  OBSERVED RESULT: "10 to 100 µM"
- COMPOUND: "COc1cc(C(=O)NCC(=O)c2cc3c(c(-c4ccc(F)c(Cl)c4)n2)OCC=C3)ccc1OCCF"
  ASSAY ENDPOINT: "CC50 at 5 days"
  OBSERVED RESULT: "> 100 µM"
- COMPOUND: "COc1cc(C(=O)NCC(C)(O)c2cccc(-c3ccc(F)c(Cl)c3)c2)ccc1OCCO (stereo not shown)"
  ASSAY ENDPOINT: "CC50 at 5 days"
  OBSERVED RESULT: "> 100 µM"
